test_system: hAPJ (Homo sapiens, UniProt P35414)
Sequence (P35414 whole entry): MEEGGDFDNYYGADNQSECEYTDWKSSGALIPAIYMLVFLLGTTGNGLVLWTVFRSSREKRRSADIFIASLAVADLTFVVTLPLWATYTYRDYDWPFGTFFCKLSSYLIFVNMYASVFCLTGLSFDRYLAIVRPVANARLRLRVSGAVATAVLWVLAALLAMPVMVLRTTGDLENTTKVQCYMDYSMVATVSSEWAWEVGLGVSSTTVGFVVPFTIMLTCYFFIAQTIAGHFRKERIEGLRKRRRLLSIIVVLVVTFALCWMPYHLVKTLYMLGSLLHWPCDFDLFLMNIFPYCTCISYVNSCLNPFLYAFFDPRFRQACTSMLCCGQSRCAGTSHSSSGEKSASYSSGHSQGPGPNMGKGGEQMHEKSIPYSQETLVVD
assay_text: cAMP assay (DiscoverX)
Type: cell-based
Numbered stars: 1 amine (or outer) side, 2 acyl side, 3 side chain; on linkers, the order of the positions; unused ones are H or OH. Bridge positions count the residues as written; N and C are the ends. Square brackets hold non-standard residues; d marks the D form. Peptide text beside a SMILES is read from it. ξ: configuration not given here. ξAbu(3ξ-yl) = CC(C(N[*:1])C(=O)[*:2])[*:3]; pGlu = O=C1CC[C@@H](C(=O)O)N1; X1 = CC=C(N[*:1])C(=O)[*:2]; ξC = NC(CS)C(=O)O
measured_quantity: EC50 (nM)

>>> experimental_value("CC=C(NC(=O)[C@H](CCSC)NC(=O)[C@@H]1CCCN1C(=O)C1CSC(C)C(NC(=O)[C@H](CC(C)C)NC(=O)[C@H](CCCNC(=N)N)NC(=O)[C@@H]2CCCN2C(=O)[C@H](CCCNC(=N)N)NC(=O)[C@@H]2CCC(=O)N2)C(=O)N[C@@H](Cc2c[nH]cn2)C(=O)N[C@@H](CCCCN)C(=O)N1)C(=O)N[C@@H](Cc1ccccc1)C(=O)O (stereo partly shown) [pEApeM5T, pERPRLmeLanHKmeLanPMDhbF] ([pGlu]RPRL[ξAbu(3ξ-yl)]HK[ξC]PM[X1]F-OH; thioether 6-9; C-terminus assumed)")
190
